test-target: polyclonal IgG (Gammanorm, Octapharma, Sweden)
assay: SPR (Biacore 8K+), variant amine-coupled to CM5, Gammanorm as analyte, steady state fit
pKd overview
Quick note: pKd values are minus log10 of concentrations in mol/L.

Reference set, count: 5
pAM150 (C3 domain of Protein L; pos 10 N, pos 45 N, pos 60 N) (protein) PKEEVTIKVNLIFADGKIQTAEFKGTFEEATAKAYAYANLLAKENGEYTADLEDGGNTINIKFAGKETPETPEE | 7.40
pAM151 (C3 domain of Protein L; pos 10 N, pos 39 D, pos 45 N, pos 57 Y, pos 60 N) (designed binder) PKEEVTIKVNLIFADGKIQTAEFKGTFEEATAKAYAYADLLAKENGEYTADLEDGGYTINIKFAGKETPETPEE | 7.52
pAM172 (C1 domain of Protein L; pos 10 Y, pos 45 H, pos 60 Y) (designed binder) PEEEVTIKAYLIFADGSTQNAEFKGTFAKAVSDAYAYADALKKDHGEYTVDVADKGLTLYIKFAGKKEKPEE | 6.96
pAM166 (D1 domain; pos 10 Q, pos 45 A, pos 60 Q) (designed binder) PKEEVTIKAQLIFADGKTQTAEFKGTFEEATAEAYRYADLLAKVAGEYTADLEDGGYTIQIKFAGKEQPGEN | 7.39
pAM163 (C3 domain of Protein L; pos 10 Q, pos 45 A, pos 60 Q) (designed binder) PKEEVTIKVQLIFADGKIQTAEFKGTFEEATAKAYAYANLLAKEAGEYTADLEDGGNTIQIKFAGKETPETPEE | 6.73

Qu. Consider the binder pAM123 (B3 domain of Protein L; pos 10 Q, pos 45 N, pos 60 N) (designed binder) PKEEVTIKAQLIYADGKTQTAEFKGTFEEATAEAYRYADLLAKENGKYTVDVADKGYTLNIKFAGKEKTPEE and give its measured pKd.
Ans. 7.29

Qu. What do you get for pAM156 (B2 domain of Protein L; pos 10 Q, pos 45 A, pos 60 Q) (designed binder) PKEEVTIKAQLIYADGKTQTAEFKGTFEEAAAEAYRYADALKKDAGEYTVDVADKGYTLQIKFAGKEKTPEE ?
Ans. 7.04

Qu. What do you get for pAM132 (B3 domain of Protein L; pos 10 Y, pos 45 N, pos 60 N) (designed binder) PKEEVTIKAYLIYADGKTQTAEFKGTFEEATAEAYRYADLLAKENGKYTVDVADKGYTLNIKFAGKEKTPEE ?
Ans. 7.30

Qu. What do you get for pAM164 (C3 domain of Protein L; pos 10 Q, pos 39 D, pos 45 A, pos 57 Y, pos 60 Q) (designed binder) PKEEVTIKVQLIFADGKIQTAEFKGTFEEATAKAYAYADLLAKEAGEYTADLEDGGYTIQIKFAGKETPETPEE ?
Ans. 7.41

Qu. What do you get for pAM119 (B3 domain of Protein L; pos 10 N, pos 45 A, pos 60 Q) (designed binder) PKEEVTIKANLIYADGKTQTAEFKGTFEEATAEAYRYADLLAKEAGKYTVDVADKGYTLQIKFAGKEKTPEE ?
Ans. 7.24

The measurements presented in this section are drawn from patent US20240391984A1.
